Quick reference for activity at 0.0064 µM among some molecules
# target-or-system: UniProt:Q8IXJ6
# experiment-notes: Continuous fluorogenic sirtuin inhibition assay, SIRT2 (tBuK peptides, TB)
# Type: biochemical
# experimental-parameters: inhibitor 0.0064 µM; single trials
Starred links: 1 amine or outer side, 2 acyl side, 3 side chain; linkers in the order of their positions; H or OH if unused. Non-standard residues stand in square brackets, D forms with d. Residues, ends and D or L forms follow the SMILES beside them. X1 = CCCC(=S)NCCCC[C@H](N[*:1])C(=O)[*:2]
Kindly provide the numeric value in % only, without the unit symbol.

Consider the worked cases shown below.
molecule	measurement-unit	activity at 0.0064 µM
CCCC(=S)NCCCC[C@H](NC(=O)[C@@H](NC(=O)[C@@H](NC(=O)[C@H](CS)NC(C)=O)[C@@H](C)O)C(C)C)C(=O)N[C@H](C(N)=O)[C@@H](C)CC [Ac-S2P04-5-tBu] (Ac-CTV[X1]I-NH2)	%	104
CCCC(=S)NCCCC[C@H](NC(=O)[C@@H](NC(=O)[C@@H](NC(=O)[C@@H](N)CS)[C@@H](C)O)C(C)C)C(=O)N[C@H](C(N)=O)[C@@H](C)CC [S2P04-5-tBuK] (H-CTV[X1]I-NH2)	%	101
CCCC(=S)NCCCC[C@H](NC(=O)[C@@H](NC(=O)[C@@H](NC(=O)[C@H](CS)NC(=O)[C@@H](N)[C@@H](C)O)[C@@H](C)O)C(C)C)C(=O)N[C@H](C(=O)NCC(N)=O)[C@@H](C)CC [S2P04-tBuK] (H-TCTV[X1]IG-NH2)	%	85.9

What measured activity at 0.0064 µM goes with CCCC(=S)NCCCC[C@H](NC(=O)[C@@H](NC(=O)[C@@H](NC(=O)[C@@H](N)CS)[C@@H](C)O)C(C)C)C(=O)N[C@H](C(=O)N[C@@H](CO)C(=O)N[C@@H](CC(C)C)C(N)=O)[C@@H](C)O [S2P03-tBuK] (H-CTV[X1]TSL-NH2) ?
98.4

----------
Listing: activity at 2 µM of selected molecules
# target-or-system: SIRT2 (Homo sapiens, UniProt Q8IXJ6)
# Sequence (Q8IXJ6 1-389): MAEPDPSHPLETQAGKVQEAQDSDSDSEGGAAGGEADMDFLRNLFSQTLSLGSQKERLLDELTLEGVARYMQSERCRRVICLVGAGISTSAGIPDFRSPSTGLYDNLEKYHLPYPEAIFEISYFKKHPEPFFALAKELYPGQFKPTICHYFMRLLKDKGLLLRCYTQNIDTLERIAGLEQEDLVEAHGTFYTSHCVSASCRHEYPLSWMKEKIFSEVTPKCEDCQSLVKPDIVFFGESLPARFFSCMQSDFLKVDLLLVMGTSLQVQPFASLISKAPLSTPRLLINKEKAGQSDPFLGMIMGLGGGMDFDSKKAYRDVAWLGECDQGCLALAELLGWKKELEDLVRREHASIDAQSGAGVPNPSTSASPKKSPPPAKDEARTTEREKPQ
# experiment-notes: Continuous fluorogenic sirtuin inhibition assay, SIRT2 (tBuK peptides, TB)
# Assay type: biochemical
# experimental-parameters: inhibitor 2 µM; single trials
Starred links: 1 amine or outer side, 2 acyl side, 3 side chain; linkers in the order of their positions; H or OH if unused. Non-standard residues stand in square brackets, D forms with d. Residues, ends and D or L forms follow the SMILES beside them. X1 = CCCC(=S)NCCCC[C@H](N[*:1])C(=O)[*:2]; Abu = CC[C@H](N)C(=O)O
// unit must come after the numeric part

molecule	endpoint-result
CCCC(=S)NCCCC[C@H](NC(=O)[C@@H](NC(=O)[C@@H](NC(=O)[C@H](CS)NC(C)=O)[C@@H](C)O)C(C)C)C(=O)N[C@H](C(N)=O)[C@@H](C)CC [Ac-S2P04-5-tBu] (Ac-CTV[X1]I-NH2)	3.09%
CCCC(=S)NCCCC[C@H](NC(=O)[C@H](Cc1ccccc1)NC(=O)[C@@H](NC(=O)[C@@H](N)CS)[C@@H](C)O)C(=O)N[C@H](C(=O)N1CCC[C@H]1C(=O)N[C@H](C(N)=O)[C@@H](C)O)C(C)C [S2P07-tBuK] (H-CTF[X1]VPT-NH2)	4.93%
CCCC(=S)NCCCC[C@H](NC(=O)[C@@H](NC(=O)[C@@H](NC(=O)[C@H](CS)NC(=O)[C@@H](N)[C@@H](C)O)[C@@H](C)O)C(C)C)C(=O)N[C@H](C(=O)NCC(N)=O)[C@@H](C)CC [S2P04-tBuK] (H-TCTV[X1]IG-NH2)	3.42%
CCCC(=S)NCCCC[C@H](NC(=O)[C@@H](NC(=O)[C@@H](NC(=O)[C@@H](N)CC)[C@@H](C)O)C(C)C)C(=O)N[C@H](C(N)=O)[C@@H](C)CC [S2P04(Abu)-5-tBuK] (H-[Abu]TV[X1]I-NH2)	4.66%
CCCC(=S)NCCCC[C@H](NC(=O)[C@@H](NC(=O)[C@@H](NC(=O)[C@@H](N)CS)[C@@H](C)O)C(C)C)C(=O)N[C@H](C(N)=O)[C@@H](C)CC [S2P04-5-tBuK] (H-CTV[X1]I-NH2)	5%

--- query ---
For CCCC(=S)NCCCC[C@H](NC(=O)[C@@H](NC(=O)[C@@H](NC(=O)[C@@H](N)CS)[C@@H](C)O)C(C)C)C(=O)N[C@H](C(=O)N[C@@H](CO)C(=O)N[C@@H](CC(C)C)C(N)=O)[C@@H](C)O [S2P03-tBuK] (H-CTV[X1]TSL-NH2) , what is its reported activity at 2 µM?
1.28%

----------
Measured %Activity, SIRT2 by item
# target-or-system: UniProt:Q8IXJ6
# Sequence (Q8IXJ6 1-389): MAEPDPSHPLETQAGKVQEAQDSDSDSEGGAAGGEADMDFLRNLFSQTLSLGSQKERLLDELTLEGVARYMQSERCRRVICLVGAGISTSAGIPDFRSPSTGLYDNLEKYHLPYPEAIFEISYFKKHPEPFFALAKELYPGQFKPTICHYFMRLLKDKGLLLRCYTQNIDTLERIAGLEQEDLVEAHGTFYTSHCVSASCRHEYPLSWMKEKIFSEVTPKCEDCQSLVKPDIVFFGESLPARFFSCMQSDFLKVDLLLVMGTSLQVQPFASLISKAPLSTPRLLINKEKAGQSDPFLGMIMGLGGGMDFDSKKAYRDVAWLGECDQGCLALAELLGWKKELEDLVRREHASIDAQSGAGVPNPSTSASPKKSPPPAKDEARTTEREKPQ
# experiment-notes: Continuous fluorogenic sirtuin inhibition assay, SIRT2 (tBuK peptides, TB)
# Assay type: biochemical
# experimental-parameters: inhibitor 1 µM; single trials; 1 µM
Starred links: 1 amine or outer side, 2 acyl side, 3 side chain; linkers in the order of their positions; H or OH if unused. Non-standard residues stand in square brackets, D forms with d. Residues, ends and D or L forms follow the SMILES beside them. X1 = CCCC(=S)NCCCC[C@H](N[*:1])C(=O)[*:2]
# number only, unit % dropped from output

Some solved entries appear below for comparison.
compound	endpoint-result
CCCC(=S)NCCCC[C@H](NC(=O)[C@H](Cc1ccccc1)NC(=O)[C@@H](NC(=O)[C@@H](N)CS)[C@@H](C)O)C(=O)N[C@H](C(=O)N1CCC[C@H]1C(=O)N[C@H](C(N)=O)[C@@H](C)O)C(C)C [S2P07-tBuK] (H-CTF[X1]VPT-NH2)	5.6905
CCCC(=S)NCCCC[C@H](NC(=O)OCc1ccccc1)C(=O)Nc1ccccc1 [TB, reference compound]	81.929
CCCC(=S)NCCCC[C@H](NC(=O)[C@@H](NC(=O)[C@@H](NC(=O)[C@@H](N)CS)[C@@H](C)O)C(C)C)C(=O)N[C@H](C(N)=O)[C@@H](C)CC [S2P04-5-tBuK] (H-CTV[X1]I-NH2)	6.7307

What value of %Activity, SIRT2 has been recorded for this entry: CCCC(=S)NCCCC[C@H](NC(=O)[C@@H](NC(=O)[C@@H](NC(=O)[C@H](CS)NC(C)=O)[C@@H](C)O)C(C)C)C(=O)N[C@H](C(N)=O)[C@@H](C)CC [Ac-S2P04-5-tBu] (Ac-CTV[X1]I-NH2)
6.0395

Requested field: %Activity, SIRT2. Item: CCCC(=S)NCCCC[C@H](NC(=O)[C@@H](NC(=O)[C@@H](NC(=O)[C@H](CS)NC(=O)[C@@H](N)[C@@H](C)O)[C@@H](C)O)C(C)C)C(=O)N[C@H](C(=O)NCC(N)=O)[C@@H](C)CC [S2P04-tBuK] (H-TCTV[X1]IG-NH2)
4.6849
